subject of test: HLA-B*48:01
protocol summary: IEDB peptide-MHC binding, purified MHC/direct/fluorescence; filed as Kd, often an IC50 or EC50 that approximates it; bounds were set here for any values at or beyond the usual limits of such assays
particulars: source organism: dengue virus type 1
measurement kind: Kd

Look up Kd for this sequence: `FRKGSSIGK`
≥ 20 µM

----------
subject of test: HLA-A*29:02
protocol summary: IEDB peptide-MHC binding, purified MHC/competitive/fluorescence; filed as Kd, often an IC50 or EC50 that approximates it; bounds were set here for any values at or beyond the usual limits of such assays
particulars: source organism: Cryptosporidium parvum Iowa II
measurement kind: Kd (nM)
Field format: number, assumed nM, no unit text.

Look up Kd for this sequence: `SFIPIFYQF`
2.2
